- assay.target: hsSUMO2-MBP fusion protein
reported.endpoint: cleavage of the SUMO fusion protein

Consider the protein bdSENP1 from B. distachyon (protein) PFVPLTDEDEDNVRHALGGRKRSETLSVHEASNIVITREILQCLNDKEWLNDEVINLYLELLKERELREPNKFLKCHFFNTFFYKKLINGGYDYKSVRRWTTKRKLGYNLIDCDKIFVPIHKDVHWCLAVINIKEKKFQYLDSLGYMDMKALRILAKYLVDEVKDKSGKQIDVHAWKQEGVQNLPLQENGWDCGMFMLKYIDFYSRDMELVFGQKHMSYFRRRTAKEILDLKAG and give its measured cleavage of the SUMO fusion protein.
< 50 % cleavage

Cited source: patent US20210261937
